Where these numbers come from: ChEMBL document CHEMBL4251585

Assay: Half life in human plasma at 1 uM up to 150 mins by LC-MS/MS analysis
Assay type: ADME, cell-free

# mol-smiles, half-life at 1 µM
data = [
    ("COc1cncc(Cc2ccc(-c3ccccc3F)nc2)c1", "> 2.5 h"),
]

---

Molecular target: CYP17A1 (Homo sapiens, UniProt P05093)
Sequence (P05093 whole entry): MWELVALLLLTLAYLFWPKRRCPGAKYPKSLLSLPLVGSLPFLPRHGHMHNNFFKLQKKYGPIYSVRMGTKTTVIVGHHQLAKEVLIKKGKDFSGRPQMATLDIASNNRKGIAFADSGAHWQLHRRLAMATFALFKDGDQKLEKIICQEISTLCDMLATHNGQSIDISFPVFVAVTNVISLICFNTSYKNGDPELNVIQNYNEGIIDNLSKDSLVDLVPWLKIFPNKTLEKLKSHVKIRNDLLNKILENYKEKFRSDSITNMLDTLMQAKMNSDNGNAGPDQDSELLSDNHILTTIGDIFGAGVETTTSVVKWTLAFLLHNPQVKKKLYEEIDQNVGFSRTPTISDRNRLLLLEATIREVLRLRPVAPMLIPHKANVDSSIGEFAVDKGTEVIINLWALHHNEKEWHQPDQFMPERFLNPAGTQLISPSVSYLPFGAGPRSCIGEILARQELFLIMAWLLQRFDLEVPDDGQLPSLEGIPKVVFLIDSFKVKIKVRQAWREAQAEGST
Experiment: Inhibition of human CYP17A1 expressed in Escherichia coli XL1 at 2 uM using [3H]-progesterone as substrate preincubated with substrate for 5 mins measured after 45 mins by HPLC analysis
Type: ADME
Conditions: human CYP17A1 expressed in Escherichia coli XL1, probe [3H]-progesterone

# mol-smiles, unit-spec, inhibition at 0.75 h, 2 µM
rows = [
    ("COc1cncc(Cc2ccc(-c3ccccc3F)nc2)c1", "%", 5),
    ("Cn1nc(-c2ccccc2)cc1Cc1cncc(O)c1", "%", 10),
]

---

// values below are reported half-life at 1 µM
Experiment: Half life in human liver S9 fraction at 1 uM up to 60 mins in presence of NADPH/UDPGA by LC-MS/MS analysis
Type: ADME, subcellular

# mol-smiles, half-life at 1 µM (min)
data = [
    ("Cn1nc(-c2ccccc2)cc1Cc1cncc(O)c1", 33),
    ("COc1cncc(Cc2ccc(-c3ccccc3F)nc2)c1", 19),
    ("Oc1cncc(Cc2ccc(-c3ccccc3F)nc2)c1", 21),
    ("CC(C)(C(=O)c1cccnc1)c1cccnc1", 49),
]

---

Target: CYP19A1 (aromatase) (Homo sapiens, UniProt P11511)
Sequence (P11511 whole entry): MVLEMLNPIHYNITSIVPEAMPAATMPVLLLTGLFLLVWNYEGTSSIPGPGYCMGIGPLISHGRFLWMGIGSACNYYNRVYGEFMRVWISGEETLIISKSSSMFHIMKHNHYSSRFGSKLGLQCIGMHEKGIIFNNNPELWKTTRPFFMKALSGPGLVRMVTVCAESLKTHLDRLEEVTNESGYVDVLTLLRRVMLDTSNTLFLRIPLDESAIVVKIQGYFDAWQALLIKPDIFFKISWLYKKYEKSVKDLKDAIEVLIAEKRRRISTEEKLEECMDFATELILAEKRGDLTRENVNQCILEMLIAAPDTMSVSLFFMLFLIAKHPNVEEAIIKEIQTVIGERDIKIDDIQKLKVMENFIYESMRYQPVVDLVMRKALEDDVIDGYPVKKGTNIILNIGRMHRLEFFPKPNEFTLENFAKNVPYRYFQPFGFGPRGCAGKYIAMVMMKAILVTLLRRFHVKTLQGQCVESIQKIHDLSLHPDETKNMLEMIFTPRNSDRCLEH
Experiment: Inhibition of human placental microsomal CYP19A1 at 2 uM using [1beta-3H]androstenedione after 21 mins by liquid scintillation spectrometry
Format: ADME
Conditions: placental microsomes, probe [1beta-3H]androstenedione
reported-property: inhibition at 0.35 h, 2 µM (%)

# mol-smiles, reported-value
records = [
    ("CC(C)(C(=O)c1cccnc1)c1cccnc1", 0),
    ("COc1cncc(Cc2ccc(-c3ccccc3F)nc2)c1", 2),
    ("Cn1nc(-c2ccccc2)cc1Cc1cncc(O)c1", 0),
    ("Oc1cncc(Cc2ccc(-c3ccccc3F)nc2)c1", 1),
]

---

// values below are reported IC50
Target: Cytochrome P450 11B1, mitochondrial (Homo sapiens)
Sequence (P15538 whole entry): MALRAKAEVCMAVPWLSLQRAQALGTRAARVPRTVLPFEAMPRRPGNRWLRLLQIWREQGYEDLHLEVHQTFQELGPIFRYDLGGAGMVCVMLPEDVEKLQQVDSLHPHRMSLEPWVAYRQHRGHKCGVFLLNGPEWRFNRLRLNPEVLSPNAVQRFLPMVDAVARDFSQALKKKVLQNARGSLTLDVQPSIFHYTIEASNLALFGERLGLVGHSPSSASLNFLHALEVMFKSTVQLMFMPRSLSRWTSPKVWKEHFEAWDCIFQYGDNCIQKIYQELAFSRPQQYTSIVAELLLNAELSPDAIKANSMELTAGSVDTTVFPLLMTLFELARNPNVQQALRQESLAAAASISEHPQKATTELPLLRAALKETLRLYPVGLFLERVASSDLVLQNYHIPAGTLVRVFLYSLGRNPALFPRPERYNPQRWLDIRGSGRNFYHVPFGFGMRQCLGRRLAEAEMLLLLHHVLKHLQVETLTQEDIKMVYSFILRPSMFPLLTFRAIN
Assay: Inhibition of human CYP11B1 expressed in hamster V79MZ cells using [1,2-3H]-11-deoxycorticosterone as substrate after 6 hrs by HPTLC analysis

# mol-smiles, unit-spec, IC50
records = [
    ("COc1cncc(Cc2ccc(-c3ccccc3F)nc2)c1", "nM", 0.8),
    ("Oc1cncc(Cc2ccc(-c3ccccc3F)nc2)c1", "nM", 29),
    ("Oc1cncc(Cc2cnc(-c3ccccc3)s2)c1", "nM", 77),
    ("Oc1cncc(Cc2cc(-c3ccccc3)no2)c1", "nM", 120),
    ("Cn1nc(-c2ccccc2)cc1Cc1cncc(O)c1", "nM", 17),
]

---

Test: Cytotoxicity against human epidermal keratinocytes assessed as cell viability at 11 uM after 72 hrs by MTT assay relative to control
Parameters: species or system Keratinocyte
Conditions: read-out: Activity

# mol-smiles, unit-spec, viability at 72 h, 11 µM
measured = [
    ("COc1cncc(Cc2ccc(-c3ccccc3F)nc2)c1", "%", 87),
]
